Tested on: cynomolgus monkeys
assay: Evaluation of wake-promoting effects in cynomolgus monkeys (EEG, EMG, locomotor activity)
Type: in vivo, cynomolgus monkey
settings: Macaca fascicularis, po; 1 mg/kg, p.o., at zeitgeber time 12; 4 hours after administration; male cynomolgus monkeys; read-out: Wakefulness time (% of vehicle treatment) (Mean, n = 2-4)
measured-attribute: response vs control in vivo at 1 mg/kg (%)
Record the value in %, omitting the unit from your answer.

The cases that follow already have their response vs control in vivo at 1 mg/kg on record.
CS(=O)(=O)N[C@@H]1CN2C(=O)N(c3noc4cccc(-c5c(F)cc(F)cc5F)c34)CC[C@@H]2C1(F)F [Example 213] | 447
CS(=O)(=O)N[C@@H]1CN2C(=O)N(c3noc4cc(F)c(F)c(-c5c(F)cc(F)cc5F)c34)CC[C@@H]2C1(F)F [Example 243] | 618
CS(=O)(=O)N[C@@H]1Cn2c(cn(-c3noc4cc(F)c(F)c(-c5c(F)cccc5F)c34)c2=O)C1(F)F [Example 142] | 690
CS(=O)(=O)N[C@@H]1CN2C(=O)N(c3noc4ccc(F)c(-c5c(F)cccc5F)c34)CC[C@@H]2C1(F)F [Example 265] | 472
CS(=O)(=O)N[C@@H]1CN2C(=O)N(c3noc4cccc(-c5c(F)cc(F)cc5F)c34)C[C@@H]2C1(F)F [Example 71] | 703

Exercise: Output response vs control in vivo at 1 mg/kg of CS(=O)(=O)N[C@@H]1Cn2c(cn(-c3noc4ccc(F)c(-c5c(F)cc(F)cc5F)c34)c2=O)C1(F)F [Example 77]
Solution: 645

Exercise: Output response vs control in vivo at 1 mg/kg of CCS(=O)(=O)N[C@H]1C[C@H]2CN(c3noc4cc(Cl)cc(-c5c(F)cccc5F)c34)C(=O)N2C1 [Example 50]
Solution: 176

Source listed as patent US11987586B1.
